Target Of Assay: T1, human bradykinin B1 receptor (human, UniProt P46663 1-353)
T1 construct: whole, on cells; Assays were run on cell membrane preparations (50 ug/well), not on intact cells; HEK293T::GFP::hB1R membranes appear only in the saturation assay; also called hB1R; BDKRB1
T1 sequence (looked up): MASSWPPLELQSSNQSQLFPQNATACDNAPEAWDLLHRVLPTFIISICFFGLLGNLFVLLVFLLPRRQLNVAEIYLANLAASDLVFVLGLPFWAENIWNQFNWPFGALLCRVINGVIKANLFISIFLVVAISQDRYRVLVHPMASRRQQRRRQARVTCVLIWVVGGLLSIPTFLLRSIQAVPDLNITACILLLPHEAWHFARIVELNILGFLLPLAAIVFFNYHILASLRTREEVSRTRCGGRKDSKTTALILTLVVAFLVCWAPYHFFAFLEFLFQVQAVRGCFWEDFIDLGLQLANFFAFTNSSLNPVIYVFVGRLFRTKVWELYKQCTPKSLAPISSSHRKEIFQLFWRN
Method Summary: average Ki of the competitive radioligand binding assays on hB1R membranes (single assay)
Observation Type: pKi
Conceptually, pKi converts a concentration in mol/L into minus its log10.

// recorded pKi for KRPXGXSPF (N-terminal DTPA-Ahx- (printed 'DPA-Ahx' in Table 4); Hyp at position 4; Cha at position 6; D-Phe at position 9) [Peptide 2: DTPA-Ahx-Lys-Arg-Pro-Hyp-Gly-Cha-Ser-Pro-(D-Phe)] : 6.88
